Tested on: MCF7
Test: Cytotoxicity against human MCF7 cells compound treated for 6 hrs measured 48 hrs post washout by MTT assay
Type: functional, cell-based
The threshold is 300 nM. Values of IC50 beneath it are tagged Met; values meeting or exceeding it are tagged Not met.

>>> class_assignment("COc1ccc(C(=O)/C=C/c2cc(Br)c(Br)n2C)c(OC)c1")
"Met"
>>> class_assignment("Cn1c(/C=C/C(=O)c2cc(O)ccc2O)cc(Br)c1Br")
"Not met"
>>> class_assignment("Cn1c(/C=C/C(=O)c2ccc(Cl)cc2Cl)cc(Br)c1Br")
"Not met"
>>> class_assignment("Cn1c(/C=C/C(=O)c2cccc(O)c2)cc(Br)c1Br")
"Not met"
>>> class_assignment("COc1ccc(OC)c(C(=O)/C=C/c2cc(Br)c(Br)[nH]2)c1")
"Met"
>>> class_assignment("O=c1cc(-c2cc(Br)c(Br)[nH]2)oc2ccccc12")
"Not met"
